- Test system: cholesterol esterase
- METHOD NOTES: Inhibitory effects of various substances on the enzyme activity
- Type: biochemical, Pseudomonas fluorescens
- CONDITION SUMMARY: cholesterol esterase, 4000 µM
Below: a set of entries, each annotated with reported Inhibition ratio (%).

# COMPOUND, Inhibition ratio (%)
rows = [
    ("O=[N+]([O-])[O-].[Ag+] [AgNO3]", 20),
    ("[Cl][Hg][Cl] [HgCl2]", 100),
    ("[Cl-].[Cl-].[Zn+2] [ZnCl2]", 0),
    ("c1ccc(-c2ccccn2)nc1 [2,2'-Dipyridyl]", 0),
    ("O=S(=O)([O-])[O-].[Fe+2] [FeSO4]", 0),
    ("[Ca+2].[Cl-].[Cl-] [CaCl2]", 0),
    ("[Cl][Mn][Cl] [MnCl2]", 0),
    ("O=S(=O)([O-])[O-].[Cu+2] [CuSO4]", 100),
    ("[Ba+2].[Cl-].[Cl-] [BaCl2]", 0),
    ("O=C(O)c1cc[c]([Hg][Cl])cc1 [p-Chloromercuri benzoic acid (p-CMB), p-Chloromercuri benzoic acid]", 0),
]

Data origin: patent US4011138A
